# testedSystem: T1, human TNFR2 (human, UniProt P20333 23-461)
# T1 construct: expressed on the surface of CHO cells; also called HuTNFR2; TNFRSF1B
# T1 sequence: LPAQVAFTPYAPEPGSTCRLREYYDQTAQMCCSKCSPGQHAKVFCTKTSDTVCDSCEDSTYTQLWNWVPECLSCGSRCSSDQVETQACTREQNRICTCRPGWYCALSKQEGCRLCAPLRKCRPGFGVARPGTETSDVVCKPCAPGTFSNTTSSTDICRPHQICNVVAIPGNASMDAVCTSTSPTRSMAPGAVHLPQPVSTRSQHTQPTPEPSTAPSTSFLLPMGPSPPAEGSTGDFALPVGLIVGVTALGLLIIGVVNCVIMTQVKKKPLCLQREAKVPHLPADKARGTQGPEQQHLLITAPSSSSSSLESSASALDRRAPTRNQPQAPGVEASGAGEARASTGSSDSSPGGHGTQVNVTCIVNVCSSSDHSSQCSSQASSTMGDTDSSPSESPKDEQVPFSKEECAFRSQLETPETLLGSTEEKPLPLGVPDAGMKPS
# measurementProtocol: binding to human TNFR2 CHO cells
quantityName: binding result

Task: Answer with reported binding result of IgG 2013 (antibody, name in Kabat numbering, V domains shown, IgG) VH: QVQLVQSGAEVKKPGASVKVSCKVSGFSFPSSGVDWVRQAPGQGLEWLGVTKGQGSTHYNQKFQGRVTITKDTSKSTVYMELSSLRSEDTAVYYCASGESTEGFVYWGQGTLVTVSS VL: DIQLTQSPSFLSASVGDRVTITCKASQNVGTAVAWYQQKPGKAPKLLIYAASTLQSGVPSRFSGSGSGTEFTLTISSLQPEDFATYYCLQKSSYPLTFGGGTKVEIKR
Result: no binding

Task: Answer with reported binding result of IgG 1953 (antibody, name in Kabat numbering, V domains shown, IgG) VH: QVQLVQSGAEVKKPGASVKVSCKVSGFSFPSSGVDWVRQAPGQGLEWLGVTKGQGSTHYNQKFQGRVTITKDTSKSTVYMELSSLRSEDTAVYYCASGESTEGFVYWGQGTLVTVSS VL: DIQLTQSPSFLSASVGDRVTITCKASQNVGTAVAWYQQKPGKAPKLLIYAASTLQSGVPSRFSGSGSGTEFTLTISSLQPEDFATYYCQQYSSYPLTFGGGTKVEIKR
Result: no binding

Task: Answer with reported binding result of IgG 1971 (antibody, name in Kabat numbering, V domains shown, IgG) VH: QVQLVQSGAEVKKPGASVKVSCKVSGFSFPSSGVDWVRQAPGQGLEWLGVTHGSGSTHYNQKFQGRVTITKDTSKSTVYMELSSLRSEDTAVYYCASGERDEGFVYWGQGTLVTVSS VL: DIQLTQSPSFLSASVGDRVTITCKASQNVGTAVAWYQQKPGKAPKLLIYAASTLQSGVPSRFSGSGSGTEFTLTISSLQPEDFATYYCQQYSSYPLTFGGGTKVEIKR
Result: no binding

Task: Answer with reported binding result of IgG 1940 (antibody, name in Kabat numbering, V domains shown, IgG) VH: QVQLVQSGAEVKKPGASVKVSCKVSGFSFPSSGVDWVRQAPGQGLEWLGVTWGVGSTHYNQKFQGRVTITKDTSKSTVYMELSSLRSEDTAVYYCASGESTEGFVYWGQGTLVTVSS VL: DIQLTQSPSFLSASVGDRVTITCKASQNVGTAVAWYQQKPGKAPKLLIYAASTLQSGVPSRFSGSGSGTEFTLTISSLQPEDFATYYCLQKSSYPLTFGGGTKVEIKR
Result: no binding

Next binder, binding result to be filled in.
Task: Answer with reported binding result of IgG 2017 (antibody, name in Kabat numbering, V domains shown, IgG) VH: QVQLVQSGAEVKKPGASVKVSCKVSGFSFPSSGVDWVRQAPGQGLEWLGVTRGEGSTHYNQKFQGRVTITKDTSKSTVYMELSSLRSEDTAVYYCASGESTEGFVYWGQGTLVTVSS VL: DIQLTQSPSFLSASVGDRVTITCKASQNVGTAVAWYQQKPGKAPKLLIYAASTLQSGVPSRFSGSGSGTEFTLTISSLQPEDFATYYCLQKSSYPLTFGGGTKVEIKR
Result: no binding
